// provenance: paper PMC4434323

Target: nhr-70 (Y51A2D.17) (Caenorhabditis elegans)
Sequence: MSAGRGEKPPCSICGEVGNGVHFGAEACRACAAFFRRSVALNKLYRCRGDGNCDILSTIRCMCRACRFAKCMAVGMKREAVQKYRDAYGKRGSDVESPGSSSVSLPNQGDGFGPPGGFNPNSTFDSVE
measurement type: binding signal (PBM E-score (-0.5 to 0.5))

sequence	result
GACTACAA (double strand) [8-mer GACTACAA]	0.495
ACTACAAA (double strand) [8-mer ACTACAAA]	0.493
GCTACAAC (double strand) [8-mer GCTACAAC]	0.483
GGCTACAC (double strand) [8-mer GGCTACAC]	0.487
